For each record, write down the corresponding pIC50.
Molecular target: UniProt P43490
Experiment: Time-Resolved Fluorescence Resonance Energy Transfer (TR-FRET) Binding Assay of NAMPT
Details: 6.8 nM NAMPT, 200 nM probe, equilibrated 3 hours, no substrates
Answers are plain numbers, as −log10 of the molar value.

// known answers, use as guide
INSERT INTO measurements (molecule, observed_result) VALUES
  ('CC(C)(C)CC(=O)N1CCC(c2ccc(NC(=O)N3CC(c4cccnc4)C3)cc2)CC1 [Example 170]', 8.15),
  ('CN(C)CCC(=O)N1CC(Oc2ccc(NC(=O)N3CC(c4cccnc4)C3)cc2)C1 [Example 150]', 6.36),
  ('CC(=O)N1CC(Oc2ccc(NC(=O)N3CC(c4cccnc4)C3)cc2)C1 [Example 137]', 7.01),
  ('O=C(CC1C[C@@H]2CC[C@H]1C2)N1CC(c2ccc(NC(=O)N3CC(c4cccnc4)C3)cc2)C1 (stereo partly shown) [Example 200]', 7.44),
  ('CC(C)(C)OC(=O)N1CC(Oc2ccc(NC(=O)N3CC(c4cccnc4)C3)cc2)C1 [Example 63]', 7.35),
  ('CC(C)(O)C(=O)N1CC[C@@H](Oc2ccc(NC(=O)N3CC(c4cccnc4)C3)cc2)C1 [Example 82]', 8.01),
  ('O=C(CC1CCCC1)N1CC(Oc2ccc(NC(=O)N3CC(c4cccnc4)C3)cc2)C1 [Example 153]', 7.91),
  ('O=C(CC1CC1)N1CC[C@@H](Oc2ccc(NC(=O)N3CC(c4cccnc4)C3)cc2)C1 [Example 81]', 7.51);

Give measured pIC50 for every item shown.
1. Cc1ccsc1C(=O)N1CC[C@@H](Oc2ccc(NC(=O)N3CC(c4cccnc4)C3)cc2)C1 [Example 310]
2. CCC(C)(C)CN1CCC(c2ccc(NC(=O)N3CC(c4cccnc4)C3)cc2)CC1 [Example 244]
3. CCC(=O)N1CC[C@@H](Oc2ccc(NC(=O)N3CC(c4cccnc4)C3)cc2)C1 [Example 319]
4. CC(C)CCC(=O)N1CC(Oc2ccc(NC(=O)N3CC(c4cccnc4)C3)cc2)C1 [Example 124]

[8.34, 5.93, 7.15, 7.83]

---

Assign pIC50 to each entry below.
Target: UniProtKB P43490
Experiment: TR-FRET Binding Assay of NAMPT with PRPP
Details: 2 nM NAMPT, 2 nM probe, 200 µM PRPP and 2.5 mM ATP, equilibrated 16 hours
One number for each entry, as −log10 of the molar value.

Solved entries:
INSERT INTO results (molecule, observed_result) VALUES
  ('COCCOCC(=O)N1CC=C(c2ccc(NC(=O)N3CC(c4cccnc4)C3)cc2)CC1 [Example 23]', 9.26),
  ('CC[C@H](C)C(=O)N1CC=C(c2ccc(NC(=O)N3CC(c4cccnc4)C3)cc2)CC1 [Example 9]', 9.46),
  ('CCOCC(=O)N1CC=C(c2ccc(NC(=O)N3CC(c4cccnc4)C3)cc2)CC1 [Example 22]', 9.20);

--- query ---
Please tell me the measured pIC50 for O=C(CC1CCOCC1)N1CCC(c2ccc(NC(=O)N3CC(c4cccnc4)C3)cc2)C1 (stereo not shown) [Example 64] ; system: UniProtKB P43490.
9.77

---

For each of the compounds below, state its IC50.
Target: NAMPT (Homo sapiens, UniProt P43490)
Sequence (P43490 whole entry): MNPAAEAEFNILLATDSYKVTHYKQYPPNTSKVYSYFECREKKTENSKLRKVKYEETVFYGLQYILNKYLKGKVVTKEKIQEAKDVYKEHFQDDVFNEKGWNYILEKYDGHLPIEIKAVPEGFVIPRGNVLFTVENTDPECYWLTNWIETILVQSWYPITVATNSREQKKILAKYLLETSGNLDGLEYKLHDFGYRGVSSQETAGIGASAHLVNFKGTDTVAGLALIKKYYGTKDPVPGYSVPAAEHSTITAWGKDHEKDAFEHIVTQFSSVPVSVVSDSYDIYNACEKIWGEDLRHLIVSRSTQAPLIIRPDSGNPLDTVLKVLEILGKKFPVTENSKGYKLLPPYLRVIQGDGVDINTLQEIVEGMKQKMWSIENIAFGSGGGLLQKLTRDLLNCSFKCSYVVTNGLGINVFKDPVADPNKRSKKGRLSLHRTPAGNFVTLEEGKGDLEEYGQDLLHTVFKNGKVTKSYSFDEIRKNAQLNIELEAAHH
Assay: TR-FRET Binding Assay of NAMPT with PRPP
Details: 2 nM NAMPT, 2 nM probe, 200 µM PRPP and 2.5 mM ATP, equilibrated 16 hours
One number for each entry, in nM.

Known results for compounds:
INSERT INTO assay_data (compound, test_system, experimental_readout, unit_tag, observed_result) VALUES
  ('COCCOCC(=O)N1CC(c2ccc(NC(=O)N3CC(c4cccnc4)C3)cc2)C1', 'NAMPT (Homo sapiens, UniProt P43490)', 'IC50', 'nM', 0.356),
  ('O=C(CC(F)(F)F)N1CC(Oc2ccc(NC(=O)N3CC(c4cccnc4)C3)cc2)C1', 'NAMPT (Homo sapiens, UniProt P43490)', 'IC50', 'nM', 0.317),
  ('CCC(C)CN1CCC(c2ccc(NC(=O)N3CC(c4cccnc4)C3)cc2)CC1 (stereo not shown)', 'NAMPT (Homo sapiens, UniProt P43490)', 'IC50', 'nM', 0.2);

Would you kindly look at the next entry?
Specify reported IC50 for the compound shown: CC(C)CC(=O)N1CC(c2ccc(NC(=O)N3CC(c4cccnc4)C3)cc2)C1
0.473

---

Target: NAMPT (Homo sapiens)
Assay: TR-FRET Binding Assay of NAMPT with PRPP
Conditions: 2 nM NAMPT, 2 nM probe, 200 µM PRPP and 2.5 mM ATP, equilibrated 16 hours
experimental_readout: pIC50
One number for each entry, as −log10 of the molar value.

INSERT INTO results (compound, experimental_readout, observed_result) VALUES
  ('O=C(Nc1ccc(C2CCN(C(=O)c3cccs3)C2)cc1)N1CC(c2cccnc2)C1 (centres unmarked) [Example 284]', 'pIC50', 9.69),
  ('CCC(C)(C)C(=O)N1CCC(c2ccc(NC(=O)N3CC(c4cccnc4)C3)cc2)C1 (centres unmarked) [Example 290]', 'pIC50', 9.65),
  ('CC(C)(C)CCN1CCC(c2ccc(NC(=O)N3CC(c4cccnc4)C3)cc2)CC1 [Example 233]', 'pIC50', 9.47);

Report pIC50 for each item below.
1. O=C(Nc1ccc(C2CN(CC3CCCO3)C2)cc1)N1CC(c2cccnc2)C1 (centres unmarked) [Example 250]
2. O=C(CC1CC1)N1CCC(Oc2ccc(NC(=O)N3CC(c4cccnc4)C3)cc2)CC1 [Example 40]
3. CCOCCC(=O)N1CC(c2ccc(NC(=O)N3CC(c4cccnc4)C3)cc2)C1 [Example 203]
4. O=C(CC1CCCCC1)N1CC[C@@H](Oc2ccc(NC(=O)N3CC(c4cccnc4)C3)cc2)C1 [Example 317]

1: 9.17; 2: 9.38; 3: 9.37; 4: 9.68

Dear reader, for each entry below, please note its pIC50.
1. O=C(Nc1ccc(C2CN(C(=O)c3nccs3)C2)cc1)N1CC(c2cccnc2)C1 [Example 228]
2. CC1(C(=O)N2CC[C@@H](Oc3ccc(NC(=O)N4CC(c5cccnc5)C4)cc3)C2)CC1 [Example 309]

[9.51, 9.58]

Please state, for each entry, its recorded pIC50.
1. O=C(CCC(F)(F)F)N1CC(c2ccc(NC(=O)N3CC(c4cccnc4)C3)cc2)C1 [Example 213]
2. CC(C)C(C)C(=O)N1CC(c2ccc(NC(=O)N3CC(c4cccnc4)C3)cc2)C1 (centres unmarked) [Example 230]
3. COCC(=O)N1CC[C@@H](Oc2ccc(NC(=O)N3CC(c4cccnc4)C3)cc2)C1 [Example 331]
4. CC(C)CCN1CC(c2ccc(NC(=O)N3CC(c4cccnc4)C3)cc2)C1 [Example 252]
5. CCCC(C)C(=O)N1CC(Oc2ccc(NC(=O)N3CC(c4cccnc4)C3)cc2)C1 (centres unmarked) [Example 136]

[9.45, 9.52, 9.45, 9.53, 9.26]

---

Target: NAMPT (Homo sapiens)
Test: Time-Resolved Fluorescence Resonance Energy Transfer (TR-FRET) Binding Assay of NAMPT
Details: 6.8 nM NAMPT, 200 nM probe, equilibrated 3 hours, no substrates
experimental_readout: log10 of IC50 (log10 of the value in µM)
# values: log10(IC50), units µM

// for each compound in input: emit log10 of IC50
1. CCCCC(=O)N1CCC(c2ccc(NC(=O)N3CC(c4cccnc4)C3)cc2)CC1
2. CSCCC(=O)N1CC=C(c2ccc(NC(=O)N3CC(c4cccnc4)C3)cc2)CC1
3. CC(C)(O)C(=O)N1CC(c2ccc(NC(=O)N3CC(c4cccnc4)C3)cc2)C1
4. CSCC(=O)N1CC=C(c2ccc(NC(=O)N3CC(c4cccnc4)C3)cc2)CC1

-2.14
-0.77
-0.69
-1.49

Give log10 of IC50 for all compounds that follow.
1. O=C(Nc1ccc(C2CCN(C(=O)C3CCCC3)CC2)cc1)N1CC(c2cccnc2)C1
2. CC(C)Cn1cc(-c2ccc(NC(=O)N3CC(c4cccnc4)C3)cc2)cn1
3. CC(C)CCC(=O)N1CC[C@@H](Oc2ccc(NC(=O)N3CC(c4cccnc4)C3)cc2)C1
4. CCOCC(=O)N1CC[C@@H](Oc2ccc(NC(=O)N3CC(c4cccnc4)C3)cc2)C1

1: -1.67; 2: -1.65; 3: -1.31; 4: -0.80

---

Exercise: state measured pIC50 for each of the compounds provided.
Biological target: NAMPT (Homo sapiens, UniProt P43490)
Test: Time-Resolved Fluorescence Resonance Energy Transfer (TR-FRET) Binding Assay of NAMPT
Conditions: 6.8 nM NAMPT, 200 nM probe, equilibrated 3 hours, no substrates
Numbers only, as −log10 of the molar value.

INSERT INTO results (compound, observed_result) VALUES
  ('CC(=O)N1CCC(c2ccc(NC(=O)N3CC(c4cccnc4)C3)cc2)CC1', 7.66),
  ('CC(C)(C)OC(=O)N1CCC(c2ccc(NC(=O)N3CC(c4cccnc4F)C3)cc2)CC1', 7.57);

Provide each entry's pIC50 from the list below.
1. CCC(C)CC(=O)N1CCC(c2ccc(NC(=O)N3CC(c4cccnc4)C3)cc2)CC1 (stereo not shown)
2. O=C(Nc1ccc(C2CN(C(=O)c3cccs3)C2)cc1)N1CC(c2cccnc2)C1

1: 8.08; 2: 7.97
